System: RARb:RXRa (NR concentration 270 nM, RXRa partner concentration 90 nM)
Test Method Notes: PBM binding z-score (relative to random genomic background probes); higher = stronger binding; sequences stand for … in GC…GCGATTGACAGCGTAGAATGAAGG
Param threshold (2) applies to PBM binding z-score; output YES when value >= threshold, NO when value < threshold.

[[record]]
input_sequence = "AGCATGAGGTTACCAAAGATCAGGGAAACGCTTG"
label_value = "YES"

[[record]]
input_sequence = "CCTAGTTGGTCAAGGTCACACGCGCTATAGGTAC"
label_value = "YES"

[[record]]
input_sequence = "TCACATAGGTAAATGCTAGGTGAAAGTCCGATCT"
label_value = "NO"

[[record]]
input_sequence = "TCTCGGAGGACACGAAGCTCAGAGCTTTCCAGAG"
label_value = "NO"

[[record]]
input_sequence = "AGCCAAAGTTCACTAGGTAACGTAAGATTCAGCT"
label_value = "YES"


Qu. Decide: is the reported value of PBM binding z-score for AGTCAAAGTTCATCTAGGTAACGTATGATATGCT equal to or greater than 2?
Ans. YES

Qu. One more sequence: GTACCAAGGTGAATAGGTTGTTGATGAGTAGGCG
Ans. NO

====

Tested on: PPARg DBDmut:RXRa IVT, anti-PPARg (DBD mutation: PPARg1 K132A/R137A, NR concentration 270 nM, RXRa partner concentration 90 nM)
Test Method Notes: PBM binding z-score (relative to random genomic background probes); higher = stronger binding; sequences stand for … in GC…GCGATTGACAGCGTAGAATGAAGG
Quantity Measured: PBM binding z-score
Could you respond with only the numeric value?

The cases that follow already have their PBM binding z-score on record.
[[record]]
input_sequence = "AGAATGAGGTTATTAAGCTCAGGGAATTGCGGTC"
quantity_measured = "PBM binding z-score"
number = 0.589

[[record]]
input_sequence = "ATCGAAAGGTCTTGAGGTGAGTATACAGAAAGGC"
quantity_measured = "PBM binding z-score"
number = 0.61


Qu. Fill blank: measured PBM binding z-score of the sequence GATACAGGGTCAAGGCCCGAGTACGCGTATTGAT is ____.
Ans. 0.597

Qu. One more sequence: ATACCCAGGTGATCGTGAGGTCGTTGATACTAAC
Ans. 0.599

====

Catalogue of PBM binding z-score values
Tested on: PPARg:RXRa DBDmut IVT, anti-RXR (DBD mutation: RXRa K156A/R161A, NR concentration 270 nM, RXRa partner concentration 90 nM)
Test Method Notes: PBM binding z-score (relative to random genomic background probes); higher = stronger binding; sequences stand for … in GC…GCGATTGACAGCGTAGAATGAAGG

[[record]]
input_sequence = "GCGACTGGGGCAGCAGCAGGTTACCATAACTTAA"
result = 3.5

[[record]]
input_sequence = "CATACAGGGTCAGCTAGGCCCGAGTAGGGACGGC"
result = 0.974

[[record]]
input_sequence = "TAGCCTAGGTCAAGGGCCAGTATACCACGCGAAC"
result = 1.71

[[record]]
input_sequence = "TCGAGTAGGTTCCCAATGGGGCATTCAGCTTTCT"
result = 0.883

[[record]]
input_sequence = "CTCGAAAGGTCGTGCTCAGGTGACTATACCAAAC"
result = 1.01


Qu. Fill blank: measured PBM binding z-score of the sequence CCTAGCAGGCTAGGGTCACTCAAGCATTTCGCTT is ____.
Ans. 0.26

Qu. One more sequence: ATATGTAGGTTAAGGATCATTCAGGTTGGTTCGC
Ans. 7.22

Qu. One more sequence: TTACCAAGGTGAGCTGAGGTCGTTGACCCAACTC
Ans. 0.928

Qu. One more sequence: ATCTCTAGGTAAAGTTCAGTGACAGATCGATAGA
Ans. 2.61

Qu. One more sequence: CGAACTAGGTCAGCACAGGACAGTGAAGGATGAT
Ans. 7.7
